measured_quantity: IC50 (µM)
Record the value in µM, omitting the unit from your answer.

# value lookup — system UniProt P26358, readout IC50, item CC(C)NCC(O)COC(Cn1c2ccc(F)cc2c2cc(F)ccc21)Cn1c2ccc(F)cc2c2cc(F)ccc21 (centres unmarked) 4.9

Request body: readout IC50, system UniProt P26358, query OC(CNCCc1ccccc1)Cn1c2ccc(F)cc2c2cc(F)ccc21 (centres unmarked) . Return the value. 7.7

// map CC(C)NCC(O)COC(Cn1c2ccccc2c2cc(F)ccc21)Cn1c2ccccc2c2cc(F)ccc21 (centres unmarked) to recorded IC50 (system: UniProt P26358) 5

Give UniProt P26358 IC50 for Oc1ccc(CCNCC(O)Cn2c3ccccc3c3cc(F)ccc32)cc1 (centres unmarked) 27

Give IC50 (UniProt P26358) of the following compound: OC(CNCCc1c[nH]c2ccccc12)Cn1c2ccccc2c2cc(F)ccc21 (centres unmarked) 28

Recorded values, source paper PMC9186373.
